These data points were gathered from PubChem BioAssay.

- Test Description: antimalarial activity against Dd2 strain (AID 2302);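 note: 0% = DMSO untreated growth and 100% = chloroquine plus artemisinin killed control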
- Measurement Parameters: P. falciparum Dd2 in RBCs, LDH growth readout, 72 h; at 2 µM
Calls of active or inactive are those of the source.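 Rule for the calls: active = growth inhibition above 50% at the single 2 µM test dose, taken to imply half-maximal potency below 2 µM; inactive = the rest.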
Pick one: true (1) = active, false (0) = inactive

- Compound: "CCOc1cc(C(=O)N[C@@H](Cc2ccccc2)[C@H](O)CNCc2cccc(OC)c2)cc(N2CCCCS2(=O)=O)c1"
  Label Class: "true (1)"
- Compound: "CC(C)[C@H](NC(=O)c1ccc(O)c(-c2ccc(Cl)c(Cl)c2)c1)C(=O)NCCN1CCCC1"
  Label Class: "true (1)"
- Compound: "Cc1cc(-c2cccc(CNCc3ccccc3)c2)ccc1S(=O)(=O)NCCN1CCCC1"
  Label Class: "true (1)"
- Compound: "Nc1nc2ccc(S(=O)(=O)Nc3ccc(C(=O)N[C@@H](CCC(=O)O)C(=O)O)c(F)c3)cc2c(=O)[nH]1"
  Label Class: "false (0)"
- Compound: "Cc1ccc(CCC(C)NCC(O)c2cccc(Cl)c2)cc1 (centres undefined)"
  Label Class: "true (1)"

Given COc1ccc(C2CC(=O)C3=C(C2)NC(C)=C(C(=O)OC2CCCC2)C3c2cccc(O)c2)cc1 (centres undefined) , state the outcome it received in this test.
true (1)

Per the records of this test, what outcome belongs to CCn1c(SC)nnc1C1CCCN(CC(=O)Nc2nc3ccc(OC)cc3s2)C1 (centres undefined) ?
true (1)

Name the outcome recorded for CN1CCN(c2ccnc3ccc(NC(=O)N(C)c4ccc(Cl)c(Cl)c4)cc23)CC1 in the assay.
true (1)

# outcome recorded in this test, key = O=C(N[C@@H](CC1CCCCC1)C(=O)NC1CCCc2ccccc21)c1ccc(O)c(-c2ccc(Cl)c(Cl)c2)c1 (some centres undefined)
true (1)

###

Form field: growth inhibition (one value per entry).
- Test Description: antimalarial activity against Dd2 strain (AID 2302);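 note: 0% = DMSO untreated growth and 100% = chloroquine plus artemisinin killed control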
- Measurement Parameters: P. falciparum Dd2 in RBCs, LDH growth readout, 72 h; at 2 µM; stronger effect = higher value
Reply numerically in %, unit not repeated.

The recorded growth inhibition for O=C(NC1CCCCC1)C1CCCN(C(=O)c2ccc(O)c(-c3ccc(Cl)c(Cl)c3)c2)C1 (centres undefined) is 42

Briefly, growth inhibition measured for CNc1ccc(CNCc2cccc(-c3ccc(-c4nc5c(C)cccc5[nH]4)cc3)c2)cc1 : 83

The compound COC(=O)c1ccc(CN2CCC(N(Cc3cccc(Oc4ccccc4)c3)S(=O)(=O)c3ccc(NC(C)=O)cc3)CC2)cc1 showed growth inhibition equal to 86

Reported growth inhibition of N#Cc1cccc(NC(=O)Nc2ccc3c(c2)CCN(C2CCC2)CC3)c1 : 26

growth inhibition measured on COC(=O)c1ccc2nc(-c3ccc(/C=C/C(=O)NC4CCN(Cc5ccccc5)CC4)cc3)[nH]c2c1 = 88

Reported growth inhibition ( N#CC(c1ccc(Cl)cc1)c1ccc2c(C(F)(F)F)cc(C(F)(F)F)nc2n1 (centres undefined) ) = 54

Record COc1cc2nc(N3CCC(CNC(=O)c4ccc(-c5ccc(O)cc5)cc4)CC3)nc(N)c2cc1OC , field growth inhibition: 78

Please fill in: growth inhibition reported for CCNc1cc(C(=O)N[C@@H](Cc2ccccc2)[C@H](O)CNC2CCC(C(C)(C)C)CC2)cc(N2CCCC2=O)c1 (some centres undefined) = 98

Measured growth inhibition of O=C(Nc1ccccc1N1CCOCC1)c1ncoc1-c1ccccc1C(F)(F)F : 60

###

- Measured On: L-lactate dehydrogenase (Plasmodium falciparum (isolate CDC / Honduras)) (UniProt Q27743)
- Sequence (Q27743 whole entry, looked up): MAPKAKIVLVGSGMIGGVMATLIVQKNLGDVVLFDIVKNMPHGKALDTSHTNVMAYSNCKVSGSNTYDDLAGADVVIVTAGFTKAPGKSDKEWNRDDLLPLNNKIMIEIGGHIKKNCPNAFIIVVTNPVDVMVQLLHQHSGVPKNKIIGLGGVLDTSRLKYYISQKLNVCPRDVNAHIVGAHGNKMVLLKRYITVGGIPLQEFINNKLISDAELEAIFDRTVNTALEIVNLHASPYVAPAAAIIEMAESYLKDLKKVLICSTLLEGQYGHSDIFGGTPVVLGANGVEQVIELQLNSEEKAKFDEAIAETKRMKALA
- Test Description: PfLDH activity inhibition – cell lysate, 3D7 strain, counter-screen for P. falciparum growth inhibition project (AID 2304);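 note: 0% = vehicle and 100% = reference inhibitor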
- Measurement Parameters: P. falciparum 3D7 crude extract, LDH APAD/NBT absorbance; at 2 µM; stronger effect = higher value
Readout Name: inhibition (%)
Return type: number; implicit unit %.

Worked set:
- Molecule: "CC(Cc1ccc(NC(=O)c2ccc(NCCc3ccccc3)cc2)cc1)NCCc1cccc(Cl)c1 (centres undefined)"
  inhibition / %: 4
- Molecule: "COc1ccc(Nc2nc(NN=Cc3ccc(-c4ccc([N+](=O)[O-])cc4)o3)nc(Nc3ccccc3)n2)cc1"
  inhibition / %: 5
- Molecule: "Cc1cccc2[nH]c(-c3ccc(-c4cccc(NC(=O)c5ccncc5)c4)cc3)nc12"
  inhibition / %: -7

Please find the next molecule below.
Short answer for COc1ccc(C(C(=O)NC2CCN(C[C@H](O)c3ccnc4ccc(OC)cc34)CC2)N2CCc3ccccc3C2)cc1 (some centres undefined) : inhibition was -3

###

- Measured On: L-lactate dehydrogenase (Plasmodium falciparum (isolate CDC / Honduras))
- Test Description: PfLDH activity inhibition – cell lysate, 3D7 strain, counter-screen for P. falciparum growth inhibition project (AID 2304);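 note: 0% = vehicle and 100% = reference inhibitor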
- Measurement Parameters: P. falciparum 3D7 crude extract, LDH APAD/NBT absorbance; at 2 µM; stronger effect = higher value
Readout Name: inhibition (%)
Number only, in %; omit the unit.

- Compound Structure: "O=C(Cc1cnc[nH]1)Nc1ccc(-c2cccc(-c3nc4ccc(C(F)(F)F)cc4[nH]3)c2)cc1"
  Readout Name: "inhibition"
  Val: -8
- Compound Structure: "Cc1cc(-c2nc3ccc(CN4CCN(C)CC4)cc3[nH]2)nn1Cc1cc(Cl)ccc1OCc1ccccc1"
  Readout Name: "inhibition"
  Val: 1
- Compound Structure: "CN1CCN(CC(=O)Nc2cccc(-c3ccc(-c4nc5ccc(F)cc5[nH]4)cc3)c2)CC1"
  Readout Name: "inhibition"
  Val: 6

Could you now look at the following molecule, please?
inhibition for NC(=O)c1cccc(C(=O)Nc2cccc(-c3ccc(-c4nc5ccc(C(F)(F)F)cc5[nH]4)cc3)c2)c1 is -1

###

- Measured On: L-lactate dehydrogenase (Plasmodium falciparum (isolate CDC / Honduras)) (UniProt Q27743)
- Test Description: PfLDH activity inhibition – cell lysate, 3D7 strain, counter-screen for P. falciparum growth inhibition project (AID 2304);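 note: 0% = vehicle and 100% = reference inhibitor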
- Measurement Parameters: P. falciparum 3D7 crude extract, LDH APAD/NBT absorbance; at 2 µM; stronger effect = higher value
Readout Name: inhibition (%)
Note: unit % is implicit; provide only the numeric part.

Examples with their reported inhibition follow.
- Compound: "Cc1ccc2[nH]cc(/C=C/C(=O)NC3CCC(CCN4CCc5ccc(C#N)cc5CC4)CC3)c2c1 (stereo not given)"
  inhibition / %: -4
- Compound: "O=C(/C=C/c1cccc2ccccc12)NCCCCCN1CCC(c2c[nH]c3ccccc23)CC1"
  inhibition / %: -1
- Compound: "CNCCNCc1cccc(-c2ccc(-c3nc4ccc(C(F)(F)F)cc4[nH]3)s2)c1"
  inhibition / %: 4
- Compound: "Cc1ccc(Oc2ccc(CNc3nc(Nc4cccc(F)c4)nc(Nc4cccc(F)c4)n3)cc2)cc1"
  inhibition / %: -2

Now consider a different compound.
Value of measured inhibition for the entry CCOc1cc(C(=O)NC2CCN(Cc3ccccc3)CC2)ccc1-c1nc2ccc(Cl)cc2[nH]1 : -6

###

- Measured On: L-lactate dehydrogenase (Plasmodium falciparum (isolate CDC / Honduras)) (UniProt Q27743)
- Test Description: PfLDH activity inhibition – cell lysate, 3D7 strain, counter-screen for P. falciparum growth inhibition project (AID 2304);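 note: 0% = vehicle and 100% = reference inhibitor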
- Measurement Parameters: P. falciparum 3D7 crude extract, LDH APAD/NBT absorbance; at 2 µM; stronger effect = higher value
Readout Name: inhibition (%)
Answer with a number only, understood to be in %.

Examples from the recorded data:
- Compound Structure: "Cc1nn(CC(C)C)c2sc(C(=O)N3CCN(S(=O)(=O)c4ccc(C#N)cc4)CC3)cc12"
  inhibition (%): -2
- Compound Structure: "COc1ccc(CCNCCCCCNCCCc2ccc(Cl)cc2)cc1OC"
  inhibition (%): 2
- Compound Structure: "Cn1cnc2c(Nc3ccncc3)nc(-c3ccc(OC(F)(F)F)cc3)nc21"
  inhibition (%): -1
- Compound Structure: "O=C(/C=C/c1ccc(Cl)c(Cl)c1)N1CCC(CCN2CCC(c3c[nH]c4ccncc34)CC2)CC1"
  inhibition (%): 2

Now let's try a different one.
Per the record, COc1ccc(CNC2Cc3ccccc3C2)cc1-c1ccc(S(=O)(=O)NCc2ccccc2)s1 has inhibition of 4

###

- Test Description: antimalarial activity against Dd2 strain (AID 2302);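 note: 0% = DMSO untreated growth and 100% = chloroquine plus artemisinin killed control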
- Measurement Parameters: P. falciparum Dd2 in RBCs, LDH growth readout, 72 h; at 2 µM; stronger effect = higher value
Here, each record is paired with measured growth inhibition data.
# number only, unit % dropped from output

Sample answers from the record:
- Compound: "O=C(Nc1ccsc1)Nc1cccc(-c2cccc(-c3nc4ccccc4[nH]3)c2)c1"
  Readout Name: "growth inhibition"
  Val: 55
- Compound: "N=c1n(Cc2ccccc2)c2ccccc2n1CC(O)c1ccc(Cl)cc1 (stereo not given)"
  Readout Name: "growth inhibition"
  Val: 75
- Compound: "O=[N+]([O-])c1ccc(-n2nc(Cc3ccccc3)n(Cc3cccc(F)c3)c2=S)c(C(F)(F)F)c1"
  Readout Name: "growth inhibition"
  Val: 100
- Compound: "O=C(/C=C/c1ccc(Cl)c(Cl)c1)NCCC(CN1CCC(c2c[nH]c3ccccc23)CC1)c1ccccc1 (stereo not given)"
  Readout Name: "growth inhibition"
  Val: 42

Attention now turns to another entry.
What the record says about CCCNCc1ccc(-c2ccc(CN(CCOC)C(=O)CCc3ccc(OC)cc3)cc2)nc1 : growth inhibition is 29
